# target.system: human active recombinant p38α-6His tagged (Homo sapiens)
# Sequence (Q16539 whole entry): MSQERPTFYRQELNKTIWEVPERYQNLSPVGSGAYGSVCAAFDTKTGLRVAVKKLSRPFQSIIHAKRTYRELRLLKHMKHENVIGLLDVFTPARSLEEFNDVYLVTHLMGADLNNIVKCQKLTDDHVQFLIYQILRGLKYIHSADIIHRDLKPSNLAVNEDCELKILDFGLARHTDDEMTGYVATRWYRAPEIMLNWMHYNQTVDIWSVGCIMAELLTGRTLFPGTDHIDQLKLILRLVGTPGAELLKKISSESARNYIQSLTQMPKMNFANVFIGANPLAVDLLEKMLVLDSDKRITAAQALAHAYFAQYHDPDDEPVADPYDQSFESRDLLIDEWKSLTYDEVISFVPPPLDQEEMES
# protocol.notes: P38 Alpha Enzyme Assay (AlphaScreen, biotinylated-ATF2 substrate);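 note: 0.5 nM final p38α, reaction started with ATP and run 45 min at 37 °C, phospho-ATF2 read by antibody-based AlphaScreen, background wells quenched with EDTA before ATP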
# Type: biochemical
# reported.conditions: p38 alpha enzyme inhibition; means of replicate determinations; 4 h pre-incubation at 37° C.; SD of assay 0.2-0.3 log units
endpoint: pIC50

[[record]]
compound = "Cc1ccc(C(=O)NC2CC2)cc1-n1ccnc(N[C@@H](c2ccccc2)[C@@H](C)CN2CCNC(=O)C2)c1=O [Example 178]"
assay_result = 8.8

[[record]]
compound = "CCNCCOc1ccccc1C1(Nc2nccn(-c3cc(C(=O)NC4CC4)ccc3C)c2=O)CC1 [Example 168]"
assay_result = 9.9

[[record]]
compound = "Cc1ccc(C(=O)NC2CC2)cc1-n1ccnc(NC(C)(C)c2ccccc2OCCCN2CCN(C)CC2)c1=O [Example 208]"
assay_result = 9.1

[[record]]
compound = "Cc1ccc(C(=O)NC2CC2)cc1-n1ccnc(NCCCN2CCOCC2)c1=O [Example 6]"
assay_result = 6.5

